System: MDA-N
assay-explanation: NCI tumour cell line growth inhibition, 48 h
Activity calls are given as the source filed them. No stated cut-off is given here; in the data, active = GI50 up to about 1.1 µM and inactive = higher.
Write down the outcome that applies. Available outcomes: class 1 for active, class 0 for inactive

Answered examples (2):
- C=CCc1c(Cl)nc(Cl)nc1Cl: class 1
- CC(=O)CC1CCC(=O)CCC(=O)OC(CC(C)=O)CCC(=O)CCC(=O)O1 (stereo not given): class 0

Each compound tested received a call. Report the one for Cc1ccc(Nc2cn(COCc3ccccc3)c(=O)[nH]c2=O)cc1 . class 0

Each compound tested received a call. Report the one for CSc1nc(NC2OC(COC(C)=O)C(OC(C)=O)C(OC(C)=O)C2OC(C)=O)c(/N=C\C=N/c2c(NC3OC(COC(C)=O)C(OC(C)=O)C(OC(C)=O)C3OC(C)=O)nc(SC)n(C)c2=O)c(=O)n1C (stereo not given) . class 0

###

Tested on: NCI-H23
assay-explanation: NCI tumour cell line growth inhibition, 48 h
The source made the active and inactive calls. Rule as the data show it: active = GI50 up to about 1.1 µM and inactive = higher.
Write down the outcome that applies. Available outcomes: active, inactive

Answered examples (5):
- COc1ccc(-c2nc3cc(F)ccc3s2)cc1O: inactive
- O=C1C2=C(SCCS2)C(=O)c2ccccc21: inactive
- COc1cccc(-c2cc(O)c3cc(OC)c(OC)cc3n2)c1: inactive
- COc1ccc(NC(=O)C(=O)C(C(=O)c2ccccc2)C2OC(=O)c3ccccc32)c([N+](=O)[O-])c1 (stereo not given): inactive
- CCOC(=O)C1C(=O)C=C(c2cc(C)ccc2O)CC1c1cccc(Br)c1 (stereo not given): inactive

Each molecule tested received a call. Report the one for COC(=O)CNC(=O)c1cc(C)cc2c1Oc1c(cc(C)cc1C(=O)NCC(=O)OC)S2 . inactive

Each molecule tested received a call. Report the one for Cc1cccc(-c2cc(O)c3cccnc3n2)c1 . inactive

Each molecule tested received a call. Report the one for CCOc1ccc(NC(=O)/C(CC(=O)c2c[n+]([O-])c3ccccc3[n+]2[O-])=N\OCCCc2ccccc2)cc1 . inactive

Each molecule tested received a call. Report the one for C/N=c1/oc2ccccc2cc1C(N)=O . inactive

Each molecule tested received a call. Report the one for O=C1C(=O)N(c2ccc(Cl)cc2)C(=O)C(=O)C1c1nc2ccccc2s1 . inactive

Each molecule tested received a call. Report the one for CCOC(=O)C(=O)C(CCC(=O)c1ccc2ccccc2c1O)C(=O)OCC (stereo not given) . inactive

Each molecule tested received a call. Report the one for CCc1nc(N)nc(N)c1-c1ccc(Cl)c([N+](=O)[O-])c1 . active

Each molecule tested received a call. Report the one for N#CC(C#N)c1ccc(C(=O)N2CCC[C@H]2CO)cc1 . inactive

Each molecule tested received a call. Report the one for C/C(=N/NC(=O)C[N+](C)(C)C)C(CN(C)C)C(=O)Nc1ccccc1 (stereo not given) . inactive

Each molecule tested received a call. Report the one for CN(Cc1cnc2nc(N)nc(N)c2n1)c1ccc(C(=O)NC(CCC(=O)O)C(=O)O)c2ccccc12 (stereo not given) . active

Each molecule tested received a call. Report the one for NN1C(=O)C(CCO)S/C1=N/N=C1/SC(CCO)C(=O)N1N (stereo not given) . inactive

###

System: SK-MEL-2
assay-explanation: NCI tumour cell line growth inhibition, 48 h
Activity calls are given as the source filed them. Cut-off read from the data, not from the text of the source: active = GI50 up to about 1.1 µM and inactive = higher.
recorded-metric: GI50

- Cc1cccc(/N=N/C(=N\NC(=O)c2cc(Cl)ccc2O)c2ccc(N(CCC#N)CCC#N)cc2C)c1: 29 µM (inactive)
- CCOC(=O)C1=C(OC(OCC)C(CC)[Se]c2ccccc2)CCC1 (centres undefined): 31.5 µM (inactive)
- CCOC(=O)C1=C(C)N(c2ccc(OC)cc2)C2(O)C=CC(O)=C3C(=O)c4ccccc4C(=O)C312 (centres undefined): 16.3 µM (inactive)

# return recorded GI50 for entry Cn1c(N)c(/C=N/NC(=O)CC#N)c(=O)n(C)c1=O > 100 µM (inactive)

###

Tested on: OVCAR-5
assay-explanation: NCI tumour cell line growth inhibition, 48 h
The source made the active and inactive calls. No stated cut-off is given here; in the data, active = GI50 up to about 1.1 µM and inactive = higher.
Write down the outcome that applies. Available outcomes: active, inactive

Answered examples (5):
• CNc1nc2c(C)ccc3nc(N(C)C)[nH]c3c-2n1 = inactive
• CN(Cc1cnc2nc(N)nc(N)c2n1)c1ccc(C(=O)NC(CCC(=O)O)C(=O)O)c2ccccc12 (stereo not drawn) = active
• Nc1nc(Cl)cc(NCC2(CO)CCC2)n1 = inactive
• CC(=O)C1(c2ccccc2)CCN(Cn2sc3nc(C)cc(C)c3c2=O)CC1 = inactive
• CCOC(=O)/C(C(=S)Nc1ccccc1)=C(/N)N1CCCC1 = inactive

Each molecule tested received a call. Report the one for COc1cc2oc3ccccc3c(=O)c2cc1CSc1ccccc1N . inactive

Each molecule tested received a call. Report the one for NC1CCCCC1NCCNC1CCCCC1N (stereo not drawn) . inactive

Each molecule tested received a call. Report the one for CCOC(=O)c1sc(=S)n(-c2ccc(Cl)cc2)c1-n1cc(-c2ccccc2)c(C#N)c1N . inactive

Each molecule tested received a call. Report the one for CC1(C)C(N2CCOCC2)CS1(=O)=O (stereo not drawn) . inactive

Each molecule tested received a call. Report the one for Fc1cc(-c2ncc(Cl)cc2Cl)c2cccccc1-2 . inactive

Each molecule tested received a call. Report the one for CC(NC1=NCCO1)c1ccccc1Cl (stereo not drawn) . inactive

Each molecule tested received a call. Report the one for O=c1[nH]c(=O)n(C2CC(O)C(CO)O2)c2nc3cc4ccccc4cc3nc12 (stereo not drawn) . inactive

Each molecule tested received a call. Report the one for COc1ccc(N2C(=O)C3c4[nH]c5ccc(OCc6ccccc6)cc5c4C4CCC(c5ccccc5)CC4C3C2=O)cc1 (stereo not drawn) . inactive

Each molecule tested received a call. Report the one for COCCN1C2=CCCCC2=Nc2c1nc(N)[nH]c2=O . inactive

Each molecule tested received a call. Report the one for Cn1c(-c2cccs2)cc(-c2cccs2)c1-c1ccco1 . inactive

Each molecule tested received a call. Report the one for N#CC(C(=O)/C(=N\Nc1nc(S)nn1N)C(C#N)c1ccc(Cl)cc1)c1ccc(Cl)cc1 (stereo not drawn) . inactive

Each molecule tested received a call. Report the one for CC1=C(/C(C)=N/NS(=O)(=O)c2ccc(C)cc2)Sc2ccccc2N1 . inactive

Each molecule tested received a call. Report the one for CCCC1N2CCCCC2[C@@H]2c3[nH]c4ccccc4c3CCN12 (stereo partly drawn) . inactive

Each molecule tested received a call. Report the one for O=C(NC12CC3CC(CC(C3)C1)C2)n1cnc2cncnc21 . inactive

Each molecule tested received a call. Report the one for CCN1CCN(c2ccc(Nc3ccnc4ccc5nn(C)nc5c34)cc2)CC1 . inactive

Each molecule tested received a call. Report the one for CC1(c2sccc2Cl)CC(c2sccc2Cl)=C(C#N)C(=C(C#N)C#N)N1 (stereo not drawn) . inactive

Each molecule tested received a call. Report the one for O=C1C(Cl)=C(N(C(=O)c2ccccc2)C(=O)c2ccccc2)C(=O)c2ccccc21 . inactive

Each molecule tested received a call. Report the one for CCOC(=O)C1C/C(C)=C(/C)SCCCS1 (stereo not drawn) . inactive

Each molecule tested received a call. Report the one for CO/N=C(\C(=O)N(C)n1cnnc1)c1csc(NC(c2ccccc2)(c2ccccc2)c2ccccc2)n1 . inactive

Each molecule tested received a call. Report the one for COC(=O)c1ccc2c(c1)CC1(C2)Cc2cc3c(c(C(=O)OC)c2C1)CCCC3 (stereo not drawn) . inactive

###

System: MOLT-4
assay-explanation: NCI tumour cell line growth inhibition, 48 h
Active and inactive are the calls of the source. Rule as the data show it: active = GI50 up to about 1.1 µM and inactive = higher.
Write down the outcome that applies. Available outcomes: 1 (active), -1 (inactive)

Answered examples (5):
* Cc1nn(-c2ccccc2)c2nc3c(c(C)nn3-c3ccccc3)c(-c3ccccc3Br)c12 | -1
* COc1cc2c(c(OC)c1OC)-c1c(cc3c(c1OC)OCO3)CC(C)C(C)(O)C2OC(=O)c1ccccc1 (configuration not stated) | -1
* O=P1(Oc2ccccc2)NCc2ncccc2O1 (configuration not stated) | -1
* c1ccc2c(c1)Cn1c-2nc2ccccc21 | -1
* CNC(=O)OCc1c(COC(=O)NC)c(-c2ccc(-c3ccccc3)cc2)n(C)c1C | 1

Each compound tested received a call. Report the one for CN1CC2CN(Cc3ccccc3)CCN2c2cccnc21 (configuration not stated) . -1

Each compound tested received a call. Report the one for CCCCCCCCCCCC(=O)OCC1OC(n2cc(F)c(=O)[nH]c2=O)C(NC(=O)OCc2ccccc2)C(O)C1O (configuration not stated) . -1

Each compound tested received a call. Report the one for CCOC(=O)C1=C(C)N(c2ccc(OC)cc2)C2(O)C=CC(O)=C3C(=O)c4ccccc4C(=O)C312 (configuration not stated) . -1

Each compound tested received a call. Report the one for CC(=O)CC1CCC(=O)CCC(=O)OC(CC(C)=O)CCC(=O)CCC(=O)O1 (configuration not stated) . -1

###

Test system: DU-145
assay-explanation: NCI tumour cell line growth inhibition, 48 h
The source made the active and inactive calls. Rule as the data show it: active = GI50 up to about 1.1 µM and inactive = higher.
Write down the outcome that applies. Available outcomes: 1 (active), 0 (inactive)

Answered examples (4):
* Fc1cc(-c2ncc(Cl)cc2Cl)c2cccccc1-2 | 0
* CN(Cc1cnc2nc(N)nc(N)c2n1)c1ccc(C(=O)NC(CCC(=O)O)C(=O)O)c2ccccc12 (stereo unspecified) | 1
* CN(C)P(=O)(Oc1ccc(CC(NC(=O)OCc2ccccc2)C(=O)OCc2ccccc2)cc1)N(C)C (stereo unspecified) | 0
* O=C(NC12CC3CC(CC(C3)C1)C2)n1cnc2cncnc21 | 0

Each molecule tested received a call. Report the one for C=C(Cl)C(Cl)(CBr)CCCC(C)C (stereo unspecified) . 0

Each molecule tested received a call. Report the one for COC(=O)C1(C(=O)OC)CC(=O)c2c(OC(=O)c3cccc(OC)c3C#N)ccc(OC(=O)c3cccc(OC)c3C#N)c2C1 . 0

Each molecule tested received a call. Report the one for CCO/C=N/NC(=O)CSc1nc2ccc(I)cc2c(=O)n1Cc1ccccc1 . 0

Each molecule tested received a call. Report the one for C=C/C(C)=C\CC1[C@](C)(O)CC[C@H]2C(C)(C)C(=O)CC[C@]12C (stereo partly specified) . 0

Each molecule tested received a call. Report the one for O=C(OCC1CCCN2CCCCC12)c1ccncc1 (stereo unspecified) . 0

Each molecule tested received a call. Report the one for COc1ccc(C)cc1NC(=S)C#N . 0

Each molecule tested received a call. Report the one for Cc1ccc2c(O)cc(-c3ccc(C)s3)nc2n1 . 1
